tested target: Glutamate receptor ionotropic, kainate 3 (Rattus norvegicus)
experimental protocol: Displacement of [3H]-KA from rat GluK3 assessed as percentage of radioligand binding at 10 uM relative to control
experimental readout: Activity (%)

O=C(O)C[C@@H]1[C@@H](C(=O)O)NC[C@@H]1n1nncc1-c1cccc(C(F)(F)F)c1
90
O=C(O)C[C@@H]1[C@@H](C(=O)O)NC[C@@H]1n1nncc1-c1cccnc1
80
NCc1cnnn1[C@H]1CN[C@H](C(=O)O)[C@H]1CC(=O)O
81

[a] Nc1cccc(-c2cn([C@H]3CN[C@H](C(=O)O)[C@H]3CC(=O)O)nn2)c1
[b] O=C(O)C[C@@H]1[C@@H](C(=O)O)NC[C@@H]1n1nncc1-c1cccc(F)c1
Query block: Hi! Which is lower in terms of Activity, the first one a or the second one b ? Which one? Tell me its label.
Result block: b
(b: 58%, a: 93%)

###

tested target: Glutamate receptor 4 (Rattus norvegicus)
Sequence (P19493 whole entry): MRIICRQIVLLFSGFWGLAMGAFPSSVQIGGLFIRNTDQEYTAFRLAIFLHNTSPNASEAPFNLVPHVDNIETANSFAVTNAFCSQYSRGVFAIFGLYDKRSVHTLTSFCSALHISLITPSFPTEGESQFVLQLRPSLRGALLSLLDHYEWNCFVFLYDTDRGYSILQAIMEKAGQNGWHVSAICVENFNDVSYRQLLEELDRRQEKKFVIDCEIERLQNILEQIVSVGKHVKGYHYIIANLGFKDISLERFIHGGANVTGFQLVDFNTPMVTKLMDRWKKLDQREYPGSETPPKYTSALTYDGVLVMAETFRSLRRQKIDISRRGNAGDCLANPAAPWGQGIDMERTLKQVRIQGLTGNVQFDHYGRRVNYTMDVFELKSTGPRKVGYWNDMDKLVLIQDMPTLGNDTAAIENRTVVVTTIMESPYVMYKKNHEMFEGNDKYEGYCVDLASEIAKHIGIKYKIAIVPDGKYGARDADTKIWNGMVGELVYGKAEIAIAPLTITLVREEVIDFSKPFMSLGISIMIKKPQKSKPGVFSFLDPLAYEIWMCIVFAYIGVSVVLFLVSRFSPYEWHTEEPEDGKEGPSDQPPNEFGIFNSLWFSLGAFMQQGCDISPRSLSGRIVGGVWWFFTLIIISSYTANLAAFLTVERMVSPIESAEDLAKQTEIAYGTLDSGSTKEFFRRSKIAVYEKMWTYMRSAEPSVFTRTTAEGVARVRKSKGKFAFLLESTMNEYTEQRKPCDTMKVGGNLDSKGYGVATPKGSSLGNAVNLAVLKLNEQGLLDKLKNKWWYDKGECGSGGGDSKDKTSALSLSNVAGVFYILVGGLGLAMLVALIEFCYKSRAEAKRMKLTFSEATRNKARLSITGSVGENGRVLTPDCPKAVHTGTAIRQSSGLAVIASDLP
experimental protocol: Displacement of [3H]-AMPA from AMPA in rat cortical synaptosomes assessed as remaining activity at 10 uM incubated for 30 mins by TopCount microplate scintillation counting method relative to control
Type: subcellular
setup conditions: Cortex, Synaptosome
experimental readout: Activity (%)

O=C(O)C[C@@H]1[C@@H](C(=O)O)NC[C@@H]1n1nncc1Cc1ccccc1
86
O=C(O)C[C@@H]1[C@@H](C(=O)O)NC[C@@H]1n1nncc1C(=O)O
85
O=C(O)C[C@@H]1[C@@H](C(=O)O)NC[C@@H]1n1nncc1-c1ccc2cc(O)ccc2c1
90
O=C(O)C[C@@H]1[C@@H](C(=O)O)NC[C@@H]1n1nncc1CCc1ccccc1
98
O=C(O)C[C@@H]1[C@@H](C(=O)O)NC[C@@H]1n1nncc1-c1ccccc1
80
CC(CCc1cnnn1[C@H]1CN[C@H](C(=O)O)[C@H]1CC(=O)O)C(=O)O (stereo not given in full)
73
O=C(O)C[C@@H]1[C@@H](C(=O)O)NC[C@@H]1n1nncc1-c1cccc(C(F)(F)F)c1
80
O=C(O)C[C@@H]1[C@@H](C(=O)O)NC[C@@H]1n1nncc1CO
86
O=C(O)CCCc1cnnn1[C@H]1CN[C@H](C(=O)O)[C@H]1CC(=O)O
86
NCc1cnnn1[C@H]1CN[C@H](C(=O)O)[C@H]1CC(=O)O
100

###

experimental protocol: Displacement of [3H]-Kainic acid from KA in rat brain membrane preincubated for 15 mins followed by [3H]-Kainic acid addition and measured after 1 hr by scintillation counting method
Format: cell membranes
pIC50: −log10 of the molar value.
experimental readout: pIC50

C/C(=C\C=C\[C@@H](C)C(=O)O)[C@H]1CN[C@H](C(=O)O)[C@H]1CC(=O)O
6.03

[a] C/C(=C/CC[C@@H](C)C(=O)O)[C@H]1CN[C@H](C(=O)O)[C@H]1CC(=O)O
[b] C[C@H](CCC[C@@H](C)[C@H]1CN[C@H](C(=O)O)[C@H]1CC(=O)O)C(=O)O
Query block: Hi! Which is lower in terms of pIC50, the first one a or the second one b ? Which one? Tell me its label.
Result block: b
(b: 4.57, a: 8.05)

###

tested target: Glutamate receptor ionotropic, kainate 1 (Homo sapiens)
Sequence (P39086 whole entry): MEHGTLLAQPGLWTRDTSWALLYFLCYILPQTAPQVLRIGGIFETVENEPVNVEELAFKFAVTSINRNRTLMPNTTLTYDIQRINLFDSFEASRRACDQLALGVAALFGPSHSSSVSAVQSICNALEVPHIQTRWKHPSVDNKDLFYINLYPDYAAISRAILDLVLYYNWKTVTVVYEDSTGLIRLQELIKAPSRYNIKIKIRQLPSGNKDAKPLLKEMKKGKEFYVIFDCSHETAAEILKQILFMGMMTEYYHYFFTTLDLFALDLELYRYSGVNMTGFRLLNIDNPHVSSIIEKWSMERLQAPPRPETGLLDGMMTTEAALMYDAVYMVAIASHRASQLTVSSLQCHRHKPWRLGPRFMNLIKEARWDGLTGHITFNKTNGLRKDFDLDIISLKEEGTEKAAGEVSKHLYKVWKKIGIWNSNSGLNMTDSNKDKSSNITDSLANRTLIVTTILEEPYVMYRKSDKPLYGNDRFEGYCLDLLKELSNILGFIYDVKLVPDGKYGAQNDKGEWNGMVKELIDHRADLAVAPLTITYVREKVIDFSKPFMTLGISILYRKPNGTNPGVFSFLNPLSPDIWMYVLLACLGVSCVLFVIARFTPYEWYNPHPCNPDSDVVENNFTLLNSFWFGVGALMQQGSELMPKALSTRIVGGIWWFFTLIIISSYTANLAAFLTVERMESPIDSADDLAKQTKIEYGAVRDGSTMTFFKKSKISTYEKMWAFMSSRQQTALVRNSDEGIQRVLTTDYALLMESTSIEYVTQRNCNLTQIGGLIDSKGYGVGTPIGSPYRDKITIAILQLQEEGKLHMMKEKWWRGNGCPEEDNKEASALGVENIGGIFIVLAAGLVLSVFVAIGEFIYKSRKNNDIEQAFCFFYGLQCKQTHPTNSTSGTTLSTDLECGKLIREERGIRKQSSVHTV
experimental readout: pKi
Formally, pKi is defined as -log10 of the concentration c, with c in mol/L.

Query block: Can you look up pKi on Glutamate receptor ionotropic, kainate 1 (Homo sapiens) for "C/C(=C/C=C/[C@@H](C)C(=O)O)[C@H]1CN[C@H](C(=O)O)[C@H]1CC(=O)O" ?
Result block: 8.95

###

experimental protocol: Displacement of [3H]-Kainic acid from KA in rat synaptic membrane
Assay type: subcellular, Synaptosome
experimental readout: pIC50
Formally, pIC50 is defined as -log10 of the concentration c, with c in mol/L.

C/C(=C/C=C/[C@@H](C)C(=O)O)[C@H]1CN[C@H](C(=O)O)[C@H]1CC(=O)O [DOMOIC ACID]
8.40
C=C(C)[C@H]1CN[C@H](C(=O)O)[C@H]1CC(=O)O [KAINIC ACID]
7.92
O=C(O)C[C@@H]1[C@@H](C(=O)O)NC[C@@H]1c1ccc(C(=O)O)[nH]c1=O
6.48

Continue with the molecule presented below.
Query block: Value lookup for pIC50; key = "O=C(O)C[C@@H]1[C@@H](C(=O)O)NC[C@@H]1c1ccccc1O"
Result block: 7.24

###

tested target: Glutamate receptor 4 (Rattus norvegicus)
experimental protocol: Displacement of [3H]-AMPA from AMPA in rat synaptic membrane
Type: subcellular, Synaptosome
experimental readout: IC50 (nM)
Number in nM, nothing else.

C/C(=C/C=C/[C@@H](C)C(=O)O)[C@H]1CN[C@H](C(=O)O)[C@H]1CC(=O)O
470
O=C(O)C[C@@H]1[C@@H](C(=O)O)NC[C@@H]1c1ccccc1O
130
O=C(O)C[C@@H]1[C@@H](C(=O)O)NC[C@@H]1c1ccc(C(=O)O)[nH]c1=O
60

Query block: Value lookup for IC50; key = "C=C(C)[C@H]1CN[C@H](C(=O)O)[C@H]1CC(=O)O"
Result block: 1900

###

tested target: Glutamate NMDA receptor
experimental protocol: Displacement of [3H]CGP39653 from NMDA receptor in rat cortical synaptosomes incubated for 60 mins by Topcount microplate scintillation counting method
Form field: Ki (one value per entry).

# annotated cases, reported Ki shown
O=C(O)C[C@@H]1[C@@H](C(=O)O)NC[C@@H]1n1nncc1-c1cccc(C(F)(F)F)c1
101 µM
O=C(O)CCc1cn([C@H]2CN[C@H](C(=O)O)[C@H]2CC(=O)O)nn1
> 100 µM

Continue with the compound presented below.
Query block: Value lookup for Ki; key = "O=C(O)C[C@@H]1[C@@H](C(=O)O)NC[C@@H]1n1ccnn1"
Result block: > 100 µM

###

Recorded below: Ki, system Glutamate receptor ionotropic, kainate 1 (Rattus norvegicus, UniProt P22756).
experimental readout: Ki (µM)

CC(CCc1cnnn1[C@H]1CN[C@H](C(=O)O)[C@H]1CC(=O)O)C(=O)O (stereo partly drawn)
11.7
O=C(O)C[C@@H]1[C@@H](C(=O)O)NC[C@@H]1n1nncc1-c1ccccn1
11.5

###

tested target: Glutamate receptor ionotropic, kainate 2 (Rattus norvegicus)
experimental protocol: Displacement of [3H]-KA from rat GluK2 assessed as percentage of radioligand binding at 10 uM relative to control
experimental readout: Activity (%)

NCc1cnnn1[C@H]1CN[C@H](C(=O)O)[C@H]1CC(=O)O
79
Nc1cccc(-c2cn([C@H]3CN[C@H](C(=O)O)[C@H]3CC(=O)O)nn2)c1
102
O=C(O)C[C@@H]1[C@@H](C(=O)O)NC[C@@H]1n1nncc1-c1cccnc1
92
CCc1ccc(-c2cnnn2[C@H]2CN[C@H](C(=O)O)[C@H]2CC(=O)O)cc1
92
O=C(O)C[C@@H]1[C@@H](C(=O)O)NC[C@@H]1n1nncc1CO
76
O=C(O)C[C@@H]1[C@@H](C(=O)O)NC[C@@H]1n1nncc1-c1ccc(C(F)(F)F)cc1
103
O=C(O)C[C@@H]1[C@@H](C(=O)O)NC[C@@H]1n1nncc1Cc1ccccc1
92
O=C(O)C[C@@H]1[C@@H](C(=O)O)NC[C@@H]1n1nncc1CCc1ccccc1
97
O=C(O)C[C@@H]1[C@@H](C(=O)O)NC[C@@H]1n1nncc1CN1CCS(=O)(=O)CC1
80
O=C(O)C[C@@H]1[C@@H](C(=O)O)NC[C@@H]1n1nncc1C(=O)O
85
O=C(O)C[C@@H]1[C@@H](C(=O)O)NC[C@@H]1n1nncc1-c1cccc(F)c1
76
COc1cccc(-c2cnnn2[C@H]2CN[C@H](C(=O)O)[C@H]2CC(=O)O)c1
89
O=C(O)C[C@@H]1[C@@H](C(=O)O)NC[C@@H]1n1nncc1-c1cccc(C(F)(F)F)c1
76
O=C(O)C[C@@H]1[C@@H](C(=O)O)NC[C@@H]1n1nncc1-c1ccc(F)cc1F
73

###

tested target: Glutamate receptor ionotropic, kainate 3 (Rattus norvegicus) (UniProt P42264)
Sequence (P42264 whole entry): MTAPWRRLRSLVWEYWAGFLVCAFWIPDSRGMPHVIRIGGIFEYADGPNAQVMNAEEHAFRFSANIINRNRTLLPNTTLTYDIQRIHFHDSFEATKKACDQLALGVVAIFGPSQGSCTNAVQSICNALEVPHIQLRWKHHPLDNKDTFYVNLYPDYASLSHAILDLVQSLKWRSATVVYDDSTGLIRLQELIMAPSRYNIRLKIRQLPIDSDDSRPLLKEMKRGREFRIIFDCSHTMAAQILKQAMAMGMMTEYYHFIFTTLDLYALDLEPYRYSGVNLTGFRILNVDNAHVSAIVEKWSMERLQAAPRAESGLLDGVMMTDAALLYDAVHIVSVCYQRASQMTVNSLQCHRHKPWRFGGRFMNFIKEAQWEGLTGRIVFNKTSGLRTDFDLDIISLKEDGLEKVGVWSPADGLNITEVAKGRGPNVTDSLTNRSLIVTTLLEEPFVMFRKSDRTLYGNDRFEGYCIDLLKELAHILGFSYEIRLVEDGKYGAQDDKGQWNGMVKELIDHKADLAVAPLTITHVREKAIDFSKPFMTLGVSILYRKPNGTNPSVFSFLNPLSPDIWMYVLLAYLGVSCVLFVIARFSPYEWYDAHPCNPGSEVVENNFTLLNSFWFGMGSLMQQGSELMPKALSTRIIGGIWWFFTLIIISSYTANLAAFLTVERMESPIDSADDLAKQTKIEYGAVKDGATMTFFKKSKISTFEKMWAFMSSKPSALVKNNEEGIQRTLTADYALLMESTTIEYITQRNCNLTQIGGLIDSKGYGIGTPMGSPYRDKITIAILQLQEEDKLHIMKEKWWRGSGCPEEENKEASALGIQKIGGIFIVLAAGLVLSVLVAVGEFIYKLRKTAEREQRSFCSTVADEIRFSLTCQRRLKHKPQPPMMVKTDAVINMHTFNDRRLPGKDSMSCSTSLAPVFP
experimental protocol: Displacement of [3H]-KA from rat GluK3 assessed as percentage of radioligand binding at 10 uM relative to control
experimental readout: Activity (%)

O=C(O)C[C@@H]1[C@@H](C(=O)O)NC[C@@H]1n1nncc1CCc1ccccc1
90
O=C(O)C[C@@H]1[C@@H](C(=O)O)NC[C@@H]1n1nncc1-c1ccc(C(F)(F)F)cc1
85
CCc1ccc(-c2cnnn2[C@H]2CN[C@H](C(=O)O)[C@H]2CC(=O)O)cc1
83
O=C(O)C[C@@H]1[C@@H](C(=O)O)NC[C@@H]1n1nncc1-c1ccc(F)cc1F
90
O=C(O)C[C@@H]1[C@@H](C(=O)O)NC[C@@H]1n1nncc1CO
84
O=C(O)C[C@@H]1[C@@H](C(=O)O)NC[C@@H]1n1nncc1Cc1ccccc1
94
O=C(O)C[C@@H]1[C@@H](C(=O)O)NC[C@@H]1n1nncc1C(=O)O
79
COc1cccc(-c2cnnn2[C@H]2CN[C@H](C(=O)O)[C@H]2CC(=O)O)c1
74
O=C(O)C[C@@H]1[C@@H](C(=O)O)NC[C@@H]1n1nncc1CN1CCS(=O)(=O)CC1
91
